- test.target: Feline_OSMR_hlgG1_Fc (feline)
- Sequence (chain, as listed by the source limits assumed, form in doubt): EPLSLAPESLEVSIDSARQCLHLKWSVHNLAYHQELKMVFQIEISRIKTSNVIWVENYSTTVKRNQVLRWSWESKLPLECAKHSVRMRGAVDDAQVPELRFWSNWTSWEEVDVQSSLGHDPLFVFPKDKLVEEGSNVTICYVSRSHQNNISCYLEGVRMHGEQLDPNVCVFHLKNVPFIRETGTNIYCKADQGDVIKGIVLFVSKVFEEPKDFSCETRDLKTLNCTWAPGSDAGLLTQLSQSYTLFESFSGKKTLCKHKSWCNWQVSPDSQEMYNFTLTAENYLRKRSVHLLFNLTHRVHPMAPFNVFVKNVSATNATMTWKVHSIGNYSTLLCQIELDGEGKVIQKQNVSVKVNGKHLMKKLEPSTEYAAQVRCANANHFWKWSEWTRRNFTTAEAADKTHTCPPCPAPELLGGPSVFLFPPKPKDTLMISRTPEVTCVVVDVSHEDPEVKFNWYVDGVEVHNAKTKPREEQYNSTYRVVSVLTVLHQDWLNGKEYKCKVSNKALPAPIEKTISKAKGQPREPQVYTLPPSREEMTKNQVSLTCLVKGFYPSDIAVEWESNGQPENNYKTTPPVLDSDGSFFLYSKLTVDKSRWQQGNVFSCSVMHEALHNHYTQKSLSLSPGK
- procedure.text: SPR Biacore
Class condition met: kon at least 400000 M⁻¹ s⁻¹. Class condition not met: kon below 400000 M⁻¹ s⁻¹.

{"columns": ["binder", "class.name"],
 "data": [
  ["Mu_10F07_VL (SEQ ID NO: 41)_W96A (antibody, V domains shown) VH: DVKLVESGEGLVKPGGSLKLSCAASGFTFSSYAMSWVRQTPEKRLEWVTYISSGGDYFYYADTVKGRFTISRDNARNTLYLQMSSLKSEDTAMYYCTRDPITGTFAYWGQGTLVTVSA VL: DIQMTQTTSSLSASLGDRVTISCRASQDITNYLNWYQQKPDGTVKLLIYYTSTLHSGVPSRFSGSGSGTDFSLTISNLEQEDIATYFCQQGHMLPATFGGGTKLEIKR", "condition not met"],
  ["Mu_02D09_VH (SEQ ID NO: 31)_G33A (antibody, V domains shown) VH: EVQLVESGGGLVKPGGSLTLSCAASGFTFSDYAMHWLRQAPEKGLEWVAYISSGSRAVFFADTVKGRFTISRDNAKNTLFLQMTSLRSDDTAMYYCARDRYDGRGFAYWGQGTLVTVSA VL: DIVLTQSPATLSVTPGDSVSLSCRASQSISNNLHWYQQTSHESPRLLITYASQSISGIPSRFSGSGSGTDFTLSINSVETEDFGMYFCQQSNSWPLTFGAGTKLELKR", "condition not met"],
  ["Mu_02D09_VH (SEQ ID NO: 31)_D102A (antibody, V domains shown) VH: EVQLVESGGGLVKPGGSLTLSCAASGFTFSDYGMHWLRQAPEKGLEWVAYISSGSRAVFFADTVKGRFTISRDNAKNTLFLQMTSLRSDDTAMYYCARDRYAGRGFAYWGQGTLVTVSA VL: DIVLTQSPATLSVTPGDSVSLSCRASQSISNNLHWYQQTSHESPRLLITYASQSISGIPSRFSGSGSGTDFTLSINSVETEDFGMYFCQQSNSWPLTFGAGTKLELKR", "condition not met"],
  ["Mu_09E09_VH (SEQ ID NO: 35)_Y50A (antibody, V domains shown) VH: DVKLVESGEGLVKPGGSLKLSCAASGFTFSSYAMSWVRQTPEKRLEWVAAISSGGDYIYYADTVKGRFTISRDNARNTLYLQMSSLKSEDTAMYYCTRDPITGTFAYWGQGTLVTVSA VL: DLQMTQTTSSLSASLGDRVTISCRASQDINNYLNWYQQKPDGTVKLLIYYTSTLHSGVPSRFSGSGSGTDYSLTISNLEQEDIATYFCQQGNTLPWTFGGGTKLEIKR", "condition met"],
  ["Mu_09E09_VL (SEQ ID NO: 37)_N34A (antibody, V domains shown) VH: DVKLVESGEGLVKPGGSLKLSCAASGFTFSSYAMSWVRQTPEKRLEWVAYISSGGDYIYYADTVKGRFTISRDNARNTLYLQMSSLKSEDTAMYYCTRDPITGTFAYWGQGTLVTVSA VL: DLQMTQTTSSLSASLGDRVTISCRASQDINNYLAWYQQKPDGTVKLLIYYTSTLHSGVPSRFSGSGSGTDYSLTISNLEQEDIATYFCQQGNTLPWTFGGGTKLEIKR", "condition not met"]
]}

In: Is kon for Mu_09E09_VH (SEQ ID NO: 35)_T102A (antibody, V domains shown) VH: DVKLVESGEGLVKPGGSLKLSCAASGFTFSSYAMSWVRQTPEKRLEWVAYISSGGDYIYYADTVKGRFTISRDNARNTLYLQMSSLKSEDTAMYYCTRDPIAGTFAYWGQGTLVTVSA VL: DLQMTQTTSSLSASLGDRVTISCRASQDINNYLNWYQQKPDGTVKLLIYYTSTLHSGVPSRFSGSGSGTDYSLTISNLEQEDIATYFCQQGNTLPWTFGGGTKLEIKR at or above 400000 M⁻¹ s⁻¹?
Out: condition met

In: Does kon meet or surpass 400000 M⁻¹ s⁻¹ for Mu_02D09_VH (SEQ ID NO: 31)_S52A (antibody, V domains shown) VH: EVQLVESGGGLVKPGGSLTLSCAASGFTFSDYGMHWLRQAPEKGLEWVAYIASGSRAVFFADTVKGRFTISRDNAKNTLFLQMTSLRSDDTAMYYCARDRYDGRGFAYWGQGTLVTVSA VL: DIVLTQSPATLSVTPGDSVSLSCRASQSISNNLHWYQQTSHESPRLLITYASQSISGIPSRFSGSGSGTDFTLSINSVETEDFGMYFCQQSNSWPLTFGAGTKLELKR ?
Out: condition met

In: Is kon at least 400000 M⁻¹ s⁻¹? Consider Mu_02D09_VL (SEQ ID NO: 33)_I29A (antibody, V domains shown) VH: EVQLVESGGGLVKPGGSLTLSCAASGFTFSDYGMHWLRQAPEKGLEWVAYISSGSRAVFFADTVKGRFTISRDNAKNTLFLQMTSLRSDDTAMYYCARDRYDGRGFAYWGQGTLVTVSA VL: DIVLTQSPATLSVTPGDSVSLSCRASQSASNNLHWYQQTSHESPRLLITYASQSISGIPSRFSGSGSGTDFTLSINSVETEDFGMYFCQQSNSWPLTFGAGTKLELKR
Out: condition not met

In: Entry Mu_02D09_VL (SEQ ID NO: 33)_L96A (antibody, V domains shown) VH: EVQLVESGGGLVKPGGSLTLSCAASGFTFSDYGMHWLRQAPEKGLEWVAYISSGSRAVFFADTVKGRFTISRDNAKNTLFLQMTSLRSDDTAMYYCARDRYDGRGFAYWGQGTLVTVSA VL: DIVLTQSPATLSVTPGDSVSLSCRASQSISNNLHWYQQTSHESPRLLITYASQSISGIPSRFSGSGSGTDFTLSINSVETEDFGMYFCQQSNSWPATFGAGTKLELKR : is its kon no less than 400000 M⁻¹ s⁻¹?
Out: condition met

In: # check: kon of Mu_10F07_VL (SEQ ID NO: 41)_Y50A (antibody, V domains shown) VH: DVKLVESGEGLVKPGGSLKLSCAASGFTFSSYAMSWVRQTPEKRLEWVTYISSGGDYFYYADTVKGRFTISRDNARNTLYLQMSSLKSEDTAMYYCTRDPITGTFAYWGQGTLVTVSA VL: DIQMTQTTSSLSASLGDRVTISCRASQDITNYLNWYQQKPDGTVKLLIYATSTLHSGVPSRFSGSGSGTDFSLTISNLEQEDIATYFCQQGHMLPWTFGGGTKLEIKR is greater than or equal to 400000 M⁻¹ s⁻¹
Out: condition not met
